Catalogue of compounds with associated relative viability
# Tested on: NCI-H1355
# assay remarks: relative viability (nuclei count vs DMSO), 5 days (fraction); higher = more cells survive
# condition summary: first compound 0.1581 µM
property measured: relative viability

| compound | target system | property measured | result |
| --- | --- | --- | --- |
| Nc1ccn([C@@H]2O[C@H](CO)[C@@H](O)[C@@H]2O)c(=O)n1 [Cytarabine] + CC1(C)CCC(c2ccc(Cl)cc2)=C(CN2CCN(c3ccc(C(=O)NS(=O)(=O)c4ccc(N[C@H](CCN5CCOCC5)CSc5ccccc5)c(S(=O)(=O)C(F)(F)F)c4)cc3)CC2)C1 [Navitoclax] (partner 0.5 µM) | NCI-H1355 | relative viability | 0.325 |
| Nc1ccn([C@@H]2O[C@H](CO)[C@@H](O)[C@@H]2O)c(=O)n1 [Cytarabine] + O=C(c1cc(Cc2n[nH]c(=O)c3ccccc23)ccc1F)N1CCN(C(=O)C2CC2)CC1 [Olaparib] (partner 8 µM) | NCI-H1355 | relative viability | 0.396 |
| COc1cc2nccc(Oc3ccc(NC(=O)Nc4cc(C)on4)c(Cl)c3)c2cc1OC [Tivozanib] + CCNC(=O)c1noc(-c2cc(C(C)C)c(O)cc2O)c1-c1ccc(CN2CCOCC2)cc1 [Luminespib] (partner 0.01 µM) | NCI-H1355 | relative viability | 0.462 |
| COc1cc2nccc(Oc3ccc(NC(=O)Nc4cc(C)on4)c(Cl)c3)c2cc1OC [Tivozanib] + Cc1nc(Nc2ncc(C(=O)Nc3c(C)cccc3Cl)s2)cc(N2CCN(CCO)CC2)n1 [Dasatinib] (partner 0.075 µM) | NCI-H1355 | relative viability | 0.413 |
